The reported numbers originate from the supplement of paper PMC10567573.

assay: protein stability index of a GFP-peptide fusion (GPS, HEK-293T) (PSI 1-6); higher = more stable; conditions: treatment: DMSO; c terminus: a fixed tail appended;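 note: 24-mer peptide tiles fused after GFP, lentivirally expressed, FACS-sorted into six equal bins by GFP/DsRed ratio, decoded by Illumina sequencing, PSI is the read-weighted mean bin number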
Please enter class 1 where protein stability index is greater than or equal to 3, and class 0 where it is lower.

Input: Check if protein stability index >= 3 (inclusive). Item: MRDQYMRAGEGFIICYSITDRRSF [RIT1]
Output: class 0

Input: Is reported protein stability index greater than or equal to 3 here: NRQSSDKQNGRVAKVKGHRSQKHK [C18orf25]
Output: class 1

Input: State whether the measured protein stability index reaches 3, counting equality as reaching it, for DTQYGSSVDIWAIGCVFAELLTGQ [CDKL4]
Output: class 0

Input: Decide: is the reported value of protein stability index for HIDPEIQDGSPTTSRRPSGTGTGP [PDLIM4] equal to or greater than 3?
Output: class 1

Input: Please tell me: is the sequence VCEEQKCEEEVFPLAMNYLDRFLS [CCND1] at or over 3 in terms of protein stability index?
Output: class 1

Input: I'd appreciate it if you could say whether ELESIRQDRDALHMEGLIVRERIL [FEM1B] has protein stability index at least equal to 3.
Output: class 1

Input: Decide: protein stability index of NFQQPGFTSGTGHFTAMVWKNTKK [GLIPR2] >= 3?
Output: class 1

Input: Is protein stability index at least 3? Consider LSGVSCFVMFLCLADYLVPILAPR [ARL6IP1]
Output: class 1

Input: Tell me whether protein stability index is at least 3 here: GSAPFLFLSLACARGSIVATYIFI [SPNS1]
Output: class 1

Input: Does the sequence PVMDVWARKQDMNTKRAIHTLAVM [KLHL14] have recorded protein stability index that is 3 or more?
Output: class 0

Input: Check if protein stability index >= 3 (inclusive). Item: CRCVASPPPDAAATAASSSASSPA [SLC25A25]
Output: class 1

Input: Decide: is the reported value of protein stability index for QVDGGANFSVDRWERKEGGGGISC [CPOX] equal to or greater than 3?
Output: class 1

Input: Determine whether this sequence has protein stability index no lower than 3: SVLEQLELQEKQKNEKLISLQEQL [TAF7L]
Output: class 1

Input: Does the sequence TPFLTNHGAHKAEKKLFECLTCGK [ZNF263] have recorded protein stability index that is 3 or more?
Output: class 1

Input: For this sequence, is measured protein stability index 3 or higher? EDLEDLGAVAPPVSGDLTKEDIDL [NFE2L1]
Output: class 1

Input: Hello, I need to know if EGYCQAQAPIAAVLLMHMPAEQAF [TBC1D10A] has measured protein stability index not below 3. Thanks!
Output: class 0

Input: Assess whether reported protein stability index for VDSPKNFNIAGTVVKYRRPMDVYE [ADAMTSL2] sits at 3 or higher.
Output: class 1

Input: For this sequence, is measured protein stability index 3 or higher? SPHRKRSDDSDEDEPCAISGKWTF [DLC1]
Output: class 1

Input: Does the reported protein stability index for QARLRDVSRREGALGWAPAAPPPL [ZBED3] fall at or above the 3 mark?
Output: class 1

Input: Test whether the sequence GCCKRRYLQKIEEFAEMVEREEED [KCNG1] records protein stability index of 3 or higher.
Output: class 1

Input: Given the entry FLCDLYPLLKLACTNTYVTGLSMI [OR4A15] , answer whether its protein stability index meets or surpasses 3.
Output: class 0

Input: Hello, I need to know if DLLCKTSHLSDTGISALVEIPKNC [WDR41] has measured protein stability index not below 3. Thanks!
Output: class 0

Input: Form field: protein stability index at least 3? Entry: QGSAVTLKTSKMALSPSATAKRIN [CDC14A]
Output: class 1

Input: Does protein stability index meet or surpass 3 for AESRELPVRCAGDWLPRGLGWGGR [ALG2] ?
Output: class 0

Input: Has VEILDLNDNSPSFATPEREMRISE [PCDHGC5] a recorded protein stability index greater than or equal to 3?
Output: class 1

Input: Determine whether this sequence has protein stability index no lower than 3: VYPKEFHLNRGNHEDHMVNLRYGF [PPEF2]
Output: class 0

Input: Test whether the sequence PSCLACNRQCLCSAESMVEYGTCM [SPRY1] records protein stability index of 3 or higher.
Output: class 0

Input: Entry SLLRRIKGKLFTWNILKTIALGQM [SLC35F2] : is its protein stability index no less than 3?
Output: class 0

Input: Assess whether reported protein stability index for SFCELHLKPHLEGAAFRDHQLLEP [TRIM29] sits at 3 or higher.
Output: class 0

Input: Determine whether measured protein stability index meets or exceeds 3 for GQPAPVSMVPPSPAMAASKALGSD [SNAP91]
Output: class 1

Input: Quick check, protein stability index >= 3? WKKLVLVDRNTRPGPQDPEESASR [ELOA2]
Output: class 1

Input: # check: protein stability index of FSSNIHTYHVGKQCFFNGVFLGNK [SPATS1] is greater than or equal to 3
Output: class 0

Input: Please indicate if the recorded protein stability index for TNEKMLKAVFGKHGPISEVLLIKD [RBMY1A1] meets or exceeds 3.
Output: class 0

Input: Answer whether protein stability index of FGGMKSSGIGREGAKDSYDFFTEI [ALDH8A1] is greater than or equal to 3.
Output: class 0

Input: Tell me whether protein stability index is at least 3 here: IFEETLNILIYETPRGPDPALLEA [KCTD13]
Output: class 0

Input: # bool: protein stability index of RDGALLGCSLTADGLPLHFFIQTV [MYORG] >= 3
Output: class 0

Input: hey, is protein stability index for this one >= 3? GDWSAFNQAPSGPVASSGEFFGSA [CLINT1]
Output: class 1

Input: Check if protein stability index >= 3 (inclusive). Item: KQPNCSSLFKLKPLSNKTATDDTG [PLD5]
Output: class 1

Input: Identify whether the reported protein stability index of the following sequence is 3 or greater: RLFLVEDLVDSLKLAVFMWLMTYV [RTN3]
Output: class 0

Input: Answer whether protein stability index of APHSTFFDPIVLLPCDLPKVVSRA [LPCAT4] is greater than or equal to 3.
Output: class 0

Input: Does protein stability index meet or surpass 3 for CYLELFPAHLYFQAHGSEGLTFQG [PLEKHN1] ?
Output: class 0
